Measured values drawn from patent US20130296311A1 for this set.

Below, each entry is listed with its recorded pEC50.
# Tested on: HCV 1b_Huh-Luc/Neo-ET cell line persistently expressing a bicistronic genotype 1b replicon in Huh 7 cells
# method: HCV replicon assay (luciferase readout, 72 h)
# Assay type: cell-based, HCV genotype 1b
# assay.setup: Hepatitis C virus, Huh-7, 72 h, read-out: Inhibition of HCV genotype 1b
pEC50: −log10 of the molar value.

Illustrative cases are given below, each with its answer.
C[C@H]1OC(=O)N(C)[C@@H]1C(=O)N1CCC[C@H]1c1ncc(-c2ccc(C#Cc3ccc(-c4cnc([C@@H]5CCCN5C(=O)[C@@H]5[C@@H](C)OC(=O)N5C)[nH]4)cc3)cc2)[nH]1 [Compound 980]    6.00 to 8.00
O=C(N[C@@H](C(=O)N1CCC[C@H]1c1ncc(-c2ccc(C#Cc3ccc(-c4cnc([C@@H]5CCCN5C(=O)[C@@H](c5ccccc5)N5CCOCC5)[nH]4)cc3)cc2)[nH]1)c1ccccc1)C1CC1 [Compound 237]    > 9.00

// below: pEC50 requested for another molecule
Record COC(=O)N[C@H](C(=O)N[C@@H](C)c1ncc(-c2ccc(C#Cc3ccc(-c4cnc([C@@H]5CCCN5C(=O)[C@@H](C(C)C)N(C)C)[nH]4)cc3)cc2)[nH]1)C(C)C [Compound 964] . Reported pEC50: 8.00 to 9.00

###

// reported EC50 for each item listed
# System: HCV 1b_Huh-Luc/Neo-ET cell line persistently expressing a bicistronic genotype 1b replicon in Huh 7 cells
# method: HCV replicon assay (luciferase readout, 72 h)
# Assay type: cell-based, HCV genotype 1b
# assay.setup: Hepatitis C virus, Huh-7, 72 h, read-out: Inhibition of HCV genotype 1b

Completed entries (count: 4):
COC(=O)N[C@H](C(=O)N1CCC[C@H]1c1ncc(-c2ccc(C#Cc3ccc(-c4cnc([C@@H]5CCCN5C(=O)[C@H](NC(=O)OC)c5ccccc5)[nH]4)cc3)cc2)[nH]1)C(C)C [Compound 1002]    < 1 nM
COC(=O)N[C@@H](C(=O)N1CCC[C@H]1c1ncc(C#Cc2ccc(C#Cc3cnc([C@@H]4CCCN4C(=O)[C@@H](c4ccccc4)N4CCCC4)[nH]3)cc2)[nH]1)c1ccccc1 [Compound 311]    < 1 nM
COC(=O)N[C@H](C(=O)N1CCC[C@H]1c1nc2ccc3cc(C#Cc4ccc(-c5cnc([C@@H]6CCCN6C(=O)[C@H](NC(=O)OC)c6ccccc6)[nH]5)cc4)ccc3c2[nH]1)C(C)C [Compound 1093]    < 1 nM
COC(=O)N[C@H](C(=O)N1CCC[C@H]1c1ncc(-c2ccc(C#Cc3ccc4nc([C@@H]5CCCN5C(=O)[C@@H](NC(=O)OC)C5CC5)[nH]c4c3)cc2)[nH]1)C1CC1 [Compound 1029]    < 1 nM

# evaluate next
Record summary for CC(C)[C@@H](NC(=O)OC(C)(C)C)C(=O)N1CCC[C@H]1C(=O)NCc1ccc(C#Cc2cnc([C@@H]3CCCN3C(=O)[C@H](NC(=O)OC(C)(C)C)C(C)C)[nH]2)cc1 [Compound 120] : reported EC50 = 10 to 999 nM

###

# Test system: HCV 1b_Huh-Luc/Neo-ET cell line persistently expressing a bicistronic genotype 1b replicon in Huh 7 cells
# method: HCV replicon assay (luciferase readout, 72 h)
# Type: cell-based, HCV genotype 1b
# assay.setup: Hepatitis C virus, Huh-7, 72 h, read-out: Inhibition of HCV genotype 1b
measured.parameter: EC50

CC(C)(C)OC(=O)N[C@@H](C(=O)N1CCC[C@H]1c1ncc(C#Cc2ccc(C#Cc3cnc([C@@H]4CCCN4C(=O)[C@H](NC(=O)OC(C)(C)C)c4ccccc4)[nH]3)cc2)[nH]1)c1ccccc1    < 1 nM
CS(=O)(=O)N[C@@H](C(=O)N1CCC[C@H]1c1ncc(-c2ccc(C#Cc3ccc(-c4cnc([C@@H]5CCCN5C(=O)[C@@H](c5ccccc5)N5CCCCC5)[nH]4)cc3)cc2)[nH]1)c1ccccc1    < 1 nM

According to the records, this molecule `COC(=O)N[C@H](C(=O)N1CCC[C@H]1c1nc2ccc(C#Cc3ccc(-c4cnc([C@@H]5CCCN5C(=O)[C@H](NC(=O)OC)C(C)C)[nH]4)cc3)cc2[nH]1)C(C)C` displays EC50 of < 1 nM
